# SUBJECT OF TEST: human MASP-2 (in normal human serum) (human, UniProt O00187 16-686)
# Sequence (O00187 16-686 limits assumed): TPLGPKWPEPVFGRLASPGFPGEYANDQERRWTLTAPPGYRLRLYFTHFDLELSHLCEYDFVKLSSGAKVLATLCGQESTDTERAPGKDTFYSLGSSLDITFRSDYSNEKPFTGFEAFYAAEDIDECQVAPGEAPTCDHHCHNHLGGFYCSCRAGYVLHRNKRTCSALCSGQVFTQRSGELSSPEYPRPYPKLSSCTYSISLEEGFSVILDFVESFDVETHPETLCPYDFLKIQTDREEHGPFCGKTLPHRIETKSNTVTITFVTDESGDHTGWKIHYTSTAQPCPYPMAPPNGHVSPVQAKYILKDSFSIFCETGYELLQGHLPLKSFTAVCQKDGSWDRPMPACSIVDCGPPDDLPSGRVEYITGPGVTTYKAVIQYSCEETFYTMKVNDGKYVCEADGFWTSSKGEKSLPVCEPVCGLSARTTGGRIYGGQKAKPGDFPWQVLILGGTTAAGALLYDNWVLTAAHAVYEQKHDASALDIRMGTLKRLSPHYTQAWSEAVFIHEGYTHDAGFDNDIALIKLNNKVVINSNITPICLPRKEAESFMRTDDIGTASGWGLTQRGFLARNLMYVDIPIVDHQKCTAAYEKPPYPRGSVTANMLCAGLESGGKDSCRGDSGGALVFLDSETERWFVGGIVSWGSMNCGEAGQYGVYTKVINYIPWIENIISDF
# PROCEDURE SUMMARY: cell-based or functional assay
Where no end group is shown, it is not given here.
Reported IC50, lectin pathway C4 deposition, human serum values for a set of binders
I only need the number, in nM, no unit after it.

Known IC50, lectin pathway C4 deposition, human serum results, listed for orientation:
[
  {
    "BINDER": "EVO23a (designed binder) KPDFCFLEEDPGPCRALKRRYFYNNQTKQCERFYYGGCFGNMNNFVTLEECKNICEDG",
    "DISPLAY UNIT": "nM",
    "RESULT NUMBER": 3.2
  },
  {
    "BINDER": "EVO2c (designed binder, not fully specified; cysteine pairing not given here, Modified TFPI-D2 Kunitz domain; made as m1) KPDFCFLEEDPGPCRAVKRRYFYNNQTKQCERFYYGGCLGNMNNFETLEECKNICEDG",
    "DISPLAY UNIT": "nM",
    "RESULT NUMBER": 22.3
  },
  {
    "BINDER": "EVO2a (designed binder, not fully specified; cysteine pairing not given here, Modified TFPI-D2 Kunitz domain; made as m1) KPDFCFLENDPGPCRAVKRRYFYNNQTKQCERFKYGGCLGNMNNFETLEECKNICEDG",
    "DISPLAY UNIT": "nM",
    "RESULT NUMBER": 215
  },
  {
    "BINDER": "EVO212 (designed binder, not fully specified; ends and bridges not checked, Modified TFPI-D2 Kunitz domain; made as m1) KPDFCFLENDPGLCRALKRRYFYNNQTKQCERFGYGGCLGNMNNFVTLEECKNICEDG",
    "DISPLAY UNIT": "nM",
    "RESULT NUMBER": 6.2
  },
  {
    "BINDER": "EVO22d (designed binder) KPDFCFLEEDPGPCRAAKRRYFYNNQTKQCERFYYGGCFGNMNNFVTLEECKNICEDG",
    "DISPLAY UNIT": "nM",
    "RESULT NUMBER": 5.6
  }
]

Entry EVO23 (designed binder, not fully specified; cysteine pairing not given here, Modified TFPI-D2 Kunitz domain; made as m1) KPDFCFLENDPGPCRALKRRYFYNNQTKQCERFYYGGCFGNMNNFVTLEECKNICEDG : reported IC50, lectin pathway C4 deposition, human serum = ?
2.9

Entry EVO211 (designed binder, not fully specified; ends and bridges not checked, Modified TFPI-D2 Kunitz domain; made as m1) KPDFCFLENDPGWCRALKRRYFYNNQTKQCERFGYGGCLGNMNNFVTLEECKNICEDG : reported IC50, lectin pathway C4 deposition, human serum = ?
3.1

Entry EVO2 (designed binder, not fully specified; ends and bridges not checked, Modified Kunitz domain TFPI-D2 of human TFPI-1; recombinant from E. coli, freed from a His6-S100A4 fusion by TEV protease; also called TFMI-2b) KPDFCFLEEDPGPCRAVKRRYFYNNQTKQCERFKYGGCLGNMNNFETLEECKNICEDG : reported IC50, lectin pathway C4 deposition, human serum = ?
138

Entry EVO213 (designed binder, Modified TFPI-D2 Kunitz domain; made as m1) KPDFCFLENDPGPCRAAKRRYFYNNQTKQCERFGYGGCLGNMNNFVTLEECKNICEDG : reported IC50, lectin pathway C4 deposition, human serum = ?
28.3
